Where these numbers come from: PubChem BioAssay (EPA / NIEHS)

assay comment: CEETOX_H295R_OHPREG: CeeTox H295R High-throughput Steroidogenesis Assay for OH-Pregnenolone (OHPREG) (AID 2283434)
experimental conditions: actives raise or lower the signal
Calls of active or inactive are those of the source. How the source made its calls: active means hit-call score of the fitted dose curve at least 0.9, where 1 is the maximum; inactive means score below 0.9.
Can you answer with just one of these options? T for active, F for inactive

Recorded test call requested for Clc1ccc(C(c2ccccc2Cl)C(Cl)(Cl)Cl)cc1 (stereo not given)
F

Continuing:
Recorded test call requested for N#Cc1ccc(N(CC(N)=O)CC(F)(F)F)cc1C(F)(F)F
F

Recorded test call requested for Cc1ccc(O)c(C)c1
F

Recorded test call requested for Cc1cc(O)ccc1Cl
F

Recorded test call requested for CC#Cc1cc(C)nc(Nc2ccccc2)n1
F

Recorded test call requested for NS(=O)(=O)C(F)(F)C(F)(F)C(F)(F)C(F)(F)C(F)(F)C(F)(F)C(F)(F)C(F)(F)F
F

Recorded test call requested for C[C@]12CCC(=O)C=C1CC[C@@H]1[C@@H]2CC[C@]2(C)C(=O)CC[C@@H]12
T

Recorded test call requested for Nc1ccc(-c2ccc(N)cc2)cc1
T

Recorded test call requested for CCC(C)(CC)c1cc(NC(=O)c2c(OC)cccc2OC)on1
F

Recorded test call requested for c1cc2ccc3cccc4ccc(c1)c2c34
T

###

assay comment: ATG_CMV_CIS: Attagene CIS-FACTORIAL HepG2 Assay for human CMV (Internal Marker) (AID 2282928);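 further: endpoint acts as a background internal control marker rather than a target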
experimental conditions: HepG2 CMV promoter reporter, transcription factor profiling; actives raise or lower the signal
The source made the active and inactive calls. The calls were made as follows: active = hit-call score of the fitted dose curve at least 0.9, where 1 is the maximum; inactive = score below 0.9.
Can you answer with just one of these options? 1.0 for active, 0.0 for inactive

Recorded test call requested for O=C(NC(=O)c1c(F)cccc1F)Nc1cc(Cl)c(OC(F)(F)C(F)F)c(Cl)c1
0.0

Recorded test call requested for CCOCCOC(C)=O
0.0

Recorded test call requested for O=S(=O)(O)C(F)(F)C(F)(F)C(F)(F)C(F)(F)C(F)(F)C(F)(F)F
0.0

Recorded test call requested for Nc1ccc(-c2ccc(N)cc2)cc1
0.0

Recorded test call requested for CCC(C)c1cc([N+](=O)[O-])cc([N+](=O)[O-])c1O (stereo not drawn)
1.0

Recorded test call requested for CCCCCCOC(=O)c1ccccc1C(=O)OCCCCCC
0.0

Recorded test call requested for Cc1cccc(C)c1N
0.0

Recorded test call requested for Clc1ccc(C(c2ccccc2Cl)C(Cl)(Cl)Cl)cc1 (stereo not drawn)
1.0

Recorded test call requested for Sc1ccccc1
0.0

###

Read-out: JUN Transcription Factor, JUN (gene 3725)
assay comment: LTEA_HepaRG_JUN: Life Technologies and Expression Analysis (LTEA) Assay for JUN Transcription Factor using HepaRG (AID 2283513)
experimental conditions: mRNA level, 48 h; actives raise or lower the signal
Calls of active or inactive are those of the source. The calls were made as follows: active = hit-call score of the fitted dose curve at least 0.9, where 1 is the maximum; inactive = score below 0.9.
observation type: AC50

Guide cases for AC50, answers given:
Would you mind telling me what AC50 value was observed for Oc1c(Cl)c(Cl)c(Cl)c(Cl)c1Cl ?
inactive

Would you mind telling me what AC50 value was observed for ClC1=C(Cl)[C@]2(Cl)[C@@H]3[C@@H]4C[C@@H]([C@H]5O[C@@H]45)[C@@H]3[C@@]1(Cl)C2(Cl)Cl ?
inactive

Would you mind telling me what AC50 value was observed for Cc1cc(-c2ccc(N)c(C)c2)ccc1N ?
inactive

Would you mind telling me what AC50 value was observed for CO/C=C(/C(=O)OC)c1ccccc1COc1cccc(C(F)(F)F)n1 ?
50 µM (active)

Would you mind telling me what AC50 value was observed for COS(=O)(=O)OC ?
inactive

Would you mind telling me what AC50 value was observed for Cc1cccc(C)c1N ?
inactive

Would you mind telling me what AC50 value was observed for Clc1ccc(C(Cl)(Cl)Cl)cc1 ?
inactive

Would you mind telling me what AC50 value was observed for CCCCCCCCOC(=O)c1ccccc1C(=O)OCCCCCCCC ?
inactive

Would you mind telling me what AC50 value was observed for ClC(Cl)=C(c1ccc(Cl)cc1)c1ccc(Cl)cc1 ?
inactive

Would you mind telling me what AC50 value was observed for O=C(N[C@H]1CN2CCC1CC2)c1cc2ccoc2cn1 ?
inactive

Alright, here's another molecule for you.
Would you mind telling me what AC50 value was observed for NS(=O)(=O)C(F)(F)C(F)(F)C(F)(F)C(F)(F)C(F)(F)C(F)(F)C(F)(F)C(F)(F)F ?
37.2 µM (active)
